# Test system: IGROV1 ovarian
# method_description: NCI tumour cell line growth inhibition, 48 h
metric: TGI

O=C(Nc1ccccc1)N(CCN(Cc1ccccc1)C(=O)Nc1ccccc1)CCN(Nc1ccccc1)C(=O)Nc1ccccc1; > 100 µM
c1ccc2c3c(ccc2c1)-c1[nH]ncc1CCO3; > 86.9 µM
COc1ccc(CC(=O)NCCc2ccc(OC)c(OC)c2OC)cc1; > 100 µM
CN(O)C(=O)CCC(NC(=O)CCC(N)C(=O)O)C(=O)NCC(=O)O (configuration not stated); > 100 µM

Hey, quick one: what's TGI for each of these?
1. CCOP(=O)(OCC)Oc1c(OC)c2[nH]c(C(=O)OC)cc2c2c(C(=O)O)c[nH]c12
2. Cc1ccc(OP(=O)(Oc2ccc(C)cc2)N2C=Cc3ccccc3C2C#N)cc1 (configuration not stated)
3. ClCc1nc2ccccc2[nH]1
4. C#CC1(O)CCC2[C@@H]3CCc4cc(Oc5nc(F)nc(-c6c(C)c(C(=O)OCC)n7ccccc67)n5)ccc4C3CC[C@@]21C (some centres not stated)

Output line:
["> 100 µM", "> 100 µM", "> 100 µM", "> 100 µM"]
